Reference source: patent US20260109712A1

# TEST SUMMARY: Mouse pharmacokinetics studies
# Format: in vivo, CD-1 mice
# CONDITION SUMMARY: mouse, in vivo
# Lookup of reported CL keyed by entry

MOLECULE SMILES	CL [mL/kg/min]
CO[C@H]1/C=C/O[C@@]2(C)Oc3c(C)c(O)c4c(c3C2=O)C2=NC3(CCN(CC(C)C)CC3)NC2=C(NC(=O)/C(C)=C/C=C/[C@H](C)[C@H](O)[C@@H](C)[C@@H](O)[C@@H](C)[C@H](OC(=O)NC2CCN(Cc3ccccc3)CC2)[C@@H]1C)C4=O	6.40
CO[C@H]1/C=C/O[C@@]2(C)Oc3c(C)c(O)c4c(c3C2=O)C2=NC3(CCN(CC(C)C)CC3)NC2=C(NC(=O)/C(C)=C/C=C/[C@H](C)[C@H](O)[C@@H](C)[C@@H](O)[C@@H](C)[C@H](OC(=O)Nc2ccccc2)[C@@H]1C)C4=O	2.40
CO[C@H]1/C=C/O[C@@]2(C)Oc3c(C)c(O)c4c(c3C2=O)C2=NC3(CCN(CC(C)C)CC3)NC2=C(NC(=O)/C(C)=C/C=C/[C@H](C)[C@H](O)[C@@H](C)[C@@H](O)[C@@H](C)[C@H](OC(=O)Nc2nncs2)[C@@H]1C)C4=O	6.19
CO[C@H]1/C=C/O[C@@]2(C)Oc3c(C)c(O)c4c(c3C2=O)C2=NC3(CCN(CC(C)C)CC3)NC2=C(NC(=O)/C(C)=C/C=C/[C@H](C)[C@H](O)[C@@H](C)[C@@H](O)[C@@H](C)[C@H](OC(=O)c2cscn2)[C@@H]1C)C4=O	5.0
CO[C@H]1/C=C/O[C@@]2(C)Oc3c(C)c(O)c4c(c3C2=O)C2=NC3(CCN(CC(C)C)CC3)NC2=C(NC(=O)/C(C)=C/C=C/[C@H](C)[C@H](O)[C@@H](C)[C@@H](O)[C@@H](C)[C@H](OC(=O)Nc2ccncc2)[C@@H]1C)C4=O	7.57

* * *

# Lookup of reported ƒu keyed by entry
# TEST SUMMARY: Plasma protein binding assay (rapid equilibrium dialysis)
# Assay type: in vitro ADME

MOLECULE	ƒu
CO[C@H]1/C=C/O[C@@]2(C)Oc3c(C)c(O)c4c(c3C2=O)C2=NC3(CCN(CC(C)C)CC3)NC2=C(NC(=O)/C(C)=C/C=C/[C@H](C)[C@H](O)[C@@H](C)[C@@H](O)[C@@H](C)[C@H](OC(=O)c2cnccn2)[C@@H]1C)C4=O [UMN51]	7.0%
CO[C@H]1/C=C/O[C@@]2(C)Oc3c(C)c(O)c4c(c3C2=O)C2=NC3(CCN(CC(C)C)CC3)NC2=C(NC(=O)/C(C)=C/C=C/[C@H](C)[C@H](O)[C@@H](C)[C@@H](O)[C@@H](C)[C@H](OC(=O)c2ccc(F)cc2)[C@@H]1C)C4=O [UMN11]	0.02%
CO[C@H]1/C=C/O[C@@]2(C)Oc3c(C)c(O)c4c(c3C2=O)C2=NC3(CCN(CC(C)C)CC3)NC2=C(NC(=O)/C(C)=C/C=C/[C@H](C)[C@H](O)[C@@H](C)[C@@H](O)[C@@H](C)[C@H](OC(=O)c2ccncn2)[C@@H]1C)C4=O [UMN50]	7.2%
COc1ccc(C(=O)O[C@H]2[C@H](C)[C@H](O)[C@H](C)[C@@H](O)[C@@H](C)/C=C/C=C(\C)C(=O)NC3=C4NC5(CCN(CC(C)C)CC5)N=C4c4c(c(O)c(C)c5c4C(=O)[C@@](C)(O/C=C/[C@H](OC)[C@H]2C)O5)C3=O)cc1 [UMN10]	0.02%
